FYI, the data here is from PubChem BioAssay.

Recorded growth inhibition by entry
Assay: OD615 S. cerevisiae growth inhibition, permissive medium, pilot counter-assay, permissive growth control for S. cerevisiae lifespan shortening project (AID 705)
Experimental conditions: OD615, 24 h, at 10 µM, active compounds read high
Please respond with the number in % and leave the unit unwritten.

- Compound: "CCc1ccc(C2CC(c3ccc(C)cc3)Nc3nc(N)nn32)cc1 (stereo not drawn)"
  growth inhibition [%]: -5.94
- Compound: "Fc1ccc(OCc2nc(-c3ccc(Br)o3)no2)c(F)c1"
  growth inhibition [%]: -8.99
- Compound: "COc1cc(C2C(C(=O)c3cccs3)=C(O)C(=O)N2Cc2ccco2)cc(OC)c1OC (stereo not drawn)"
  growth inhibition [%]: -6.95

Request: Which growth inhibition value belongs to O=C(O)CCCCCN1C(=O)C(=O)/C(=C(/O)c2ccccc2)C1c1ccccc1 (stereo not drawn) ?
Result: -21.2

---

Assay: growth suppression of beta-catenin knockout HCT116, pilot screen, human colon tumor cells (AID 823);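 note: 0% = wells killed by 20 µM Hyamine and 100% = untreated DMSO cell wells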
Experimental conditions: CellTiter-Glo, 60 h, at 10 µM, active compounds read low
Results filed as inconclusive are left out.
Reported property: viability (%)
Please respond with the number in % and leave the unit unwritten.

# annotated cases, reported viability shown
- Molecule: "O=C1CCc2cc(S(=O)(=O)NC(C(=O)NCc3cccnc3)c3ccccc3)ccc2N1 (stereo unspecified)"
  Reported property: "viability"
  Obs value: 100
- Molecule: "CCC(CC)C(=O)NCCc1cc2ccc(C)c(C)c2[nH]c1=O"
  Reported property: "viability"
  Obs value: 103
- Molecule: "O=C(CSc1ncnc2c1oc1ccccc12)NCc1ccc(F)cc1"
  Reported property: "viability"
  Obs value: 68.6

Request: Which viability value belongs to CCOC(=O)Cn1c(CN2CC(C)OC(C)C2)nc2c1c(=O)n(C)c(=O)n2C (stereo unspecified) ?
Result: 95.2

Request: Which viability value belongs to `CN1CCc2c(sc(NC(=O)c3ccc(S(=O)(=O)N4CCOCC4)cc3)c2C(N)=O)C1` ?
Result: 111

Request: Which viability value belongs to `Nc1ccccc1-c1nnc(SCc2ccccc2F)[nH]c1=O` ?
Result: 95.9

Request: Which viability value belongs to c1ccc(C2NCCn3cccc32)cc1 (stereo unspecified) ?
Result: 99

Request: Which viability value belongs to N#CC1=C(SCc2ccccc2)NC(=O)CC1c1ccc(O)cc1 (stereo unspecified) ?
Result: 98.2

---

Recorded RAM network inhibition by entry
Assay: RAM signaling pathway blockade in yeast – S. cerevisiae, Pdr1DBD-CYC8 efflux-inhibited sensitized strain, primary screen (AID 1298);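 note: 0% = DMSO untreated cells without growth and 100% = 10 µM 1-NA-PP1 full growth; higher means more yeast growth rescued from 5-FOA killing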
Experimental conditions: S. cerevisiae cbk1-as DSE1-URA3 strain, 5-FOA growth OD615, 2 d; at 50 µM; active compounds read high
Please respond with the number in % and leave the unit unwritten.

# annotated cases, reported RAM network inhibition shown
- Molecule: "O=C(CN1C(=O)COc2ccccc21)Nc1ccc(F)cc1"
  Measurement units: "%"
  RAM network inhibition: 0.3
- Molecule: "COc1ccc(C(=O)Nc2nncs2)cc1S(=O)(=O)N1CC(c2ccccc2)CC1=O (stereo not given)"
  Measurement units: "%"
  RAM network inhibition: 3.31
- Molecule: "COc1ccccc1C(=O)Nc1nnc(-c2ccc3c(c2)CCCC3)o1"
  Measurement units: "%"
  RAM network inhibition: -0.58

Request: Which RAM network inhibition value belongs to `Cc1ccc(C)c(N2CCN(C(=O)CCS(=O)(=O)c3cccc4nonc34)CC2)c1` ?
Result: 6.07

Request: Which RAM network inhibition value belongs to `CSCC[C@@H](C(=O)Nc1ccc2c(c1)OCCO2)N1Cc2ccccc2C1=O` ?
Result: 4.13
